For each of the compounds below, state its Measured Blend Content (% Theoretical).
- MEASUREMENT_DESCRIPTION: RPL554 content and content uniformity of 1% w/w lactose powder blends
- Format: physicochemical
- MEASUREMENT_CONTEXT: 1% w/w RPL554 variant: lactose powder blend; expressed as RPL554 base
Structures can show the parent of a compound that is named as a salt.
Numbers only, in % Theoretical.

Use the examples below as a reference point.
COc1cc2c(cc1OC)-c1c/c(=N\c3c(C)cc(C)cc3C)n(CCNC(N)=O)c(=O)n1CC2 [Ethane-1,2-disulfonate, RPL554 ethane-1,2-disulfonate] | 80.18
COc1cc2c(cc1OC)-c1c/c(=N\c3c(C)cc(C)cc3C)n(CCNC(N)=O)c(=O)n1CC2 [p-Toluenesulfonate, RPL554 p-toluenesulfonate] | 88.66
COc1cc2c(cc1OC)-c1c/c(=N\c3c(C)cc(C)cc3C)n(CCNC(N)=O)c(=O)n1CC2 [Methanesulfonate, RPL554 methanesulfonate] | 99.13
COc1cc2c(cc1OC)-c1c/c(=N\c3c(C)cc(C)cc3C)n(CCNC(N)=O)c(=O)n1CC2 [Sulfate, RPL554 sulfate] | 73.50
COc1cc2c(cc1OC)-c1c/c(=N\c3c(C)cc(C)cc3C)n(CCNC(N)=O)c(=O)n1CC2 [Benzenesulfonate, RPL554 benzenesulfonate] | 89.34

What the record says about COc1cc2c(cc1OC)-c1c/c(=N\c3c(C)cc(C)cc3C)n(CCNC(N)=O)c(=O)n1CC2 [Ethanesulfonate, RPL554 ethanesulfonate] : Measured Blend Content (% Theoretical) is 98.79

* * *

Consider the following molecules; for each one, report its **Adjusted RPL554 Content per capsule.
- MEASUREMENT_DESCRIPTION: RPL554 content and content uniformity of 1% w/w lactose powder blends
- Assay type: physicochemical
- MEASUREMENT_CONTEXT: per 20 mg capsule of 1% w/w lactose blend; adjusted for measured blend content (% theoretical); as RPL554 base
Structures can show the parent of a compound that is named as a salt.
Numbers only, in µg.

These solved cases illustrate the format of a correct answer.
COc1cc2c(cc1OC)-c1c/c(=N\c3c(C)cc(C)cc3C)n(CCNC(N)=O)c(=O)n1CC2 [Sulfate, RPL554 sulfate] | 121.95
COc1cc2c(cc1OC)-c1c/c(=N\c3c(C)cc(C)cc3C)n(CCNC(N)=O)c(=O)n1CC2 [Methanesulfonate, RPL554 methanesulfonate] | 165.05
COc1cc2c(cc1OC)-c1c/c(=N\c3c(C)cc(C)cc3C)n(CCNC(N)=O)c(=O)n1CC2 [Ethanesulfonate, RPL554 ethanesulfonate] | 160.55
COc1cc2c(cc1OC)-c1c/c(=N\c3c(C)cc(C)cc3C)n(CCNC(N)=O)c(=O)n1CC2 [p-Toluenesulfonate, RPL554 p-toluenesulfonate] | 130.33
COc1cc2c(cc1OC)-c1c/c(=N\c3c(C)cc(C)cc3C)n(CCNC(N)=O)c(=O)n1CC2 [Ethane-1,2-disulfonate, RPL554 ethane-1,2-disulfonate] | 133.73

Attention now shifts to the item below.
Note to self: **Adjusted RPL554 Content per capsule recorded for COc1cc2c(cc1OC)-c1c/c(=N\c3c(C)cc(C)cc3C)n(CCNC(N)=O)c(=O)n1CC2 [Benzenesulfonate, RPL554 benzenesulfonate] was 134.22

* * *

- MEASUREMENT_DESCRIPTION: Solubility of RPL554 salts in saline solutions, water and aqueous buffer solutions at 25° C. (HPLC)
- Assay type: physicochemical
- MEASUREMENT_CONTEXT: 24 hours
- Protocol: The behaviour of salts of RPL554 were examined under the following conditions: • Phosphate buffered to pH 3.5 in saline, 0.9% w/w at 25° C. • Acetate buffered to pH 4.5 in saline, 0.9% w/w at 25° C. • Citro-Phosphate buffered to pH 4.5 in saline, 0.9% w/w at 25° C. • Phosphate buffered to pH 6.5 in saline, 0.9% w/w at 25° C. • Saline, 0.7, 0.9 and 1.1% w/w at 25° C. • Deionised water at 25° C. […]
Counter-ions that a name gives are not always drawn.
Please enter Criterion met where Solubility as RPL554 (mg/ml) in 0.7 w/w % Saline is greater than or equal to 2 mg/mL, and Criterion not met where it is lower.

Solved cases (4 shown):
COc1cc2c(cc1OC)-c1c/c(=N\c3c(C)cc(C)cc3C)n(CCNC(N)=O)c(=O)n1CC2 [Ethane-1,2-disulfonate, RPL554 ethane-1,2-disulfonate] | Criterion met
COc1cc2c(cc1OC)-c1c/c(=N\c3c(C)cc(C)cc3C)n(CCNC(N)=O)c(=O)n1CC2 [Methanesulfonate, RPL554 methanesulfonate] | Criterion met
COc1cc2c(cc1OC)-c1c/c(=N\c3c(C)cc(C)cc3C)n(CCNC(N)=O)c(=O)n1CC2 [Sulfate, RPL554 sulfate] | Criterion met
COc1cc2c(cc1OC)-c1c/c(=N\c3c(C)cc(C)cc3C)n(CCNC(N)=O)c(=O)n1CC2 [p-Toluenesulfonate, RPL554 p-toluenesulfonate] | Criterion not met

Query :: Kindly determine if Solubility as RPL554 (mg/ml) in 0.7 w/w % Saline recorded for COc1cc2c(cc1OC)-c1c/c(=N\c3c(C)cc(C)cc3C)n(CCNC(N)=O)c(=O)n1CC2 [Naphthalene-2-sulfonate] is above or exactly 2 mg/mL.
Result :: Criterion not met

Query :: Quick check: does COc1cc2c(cc1OC)-c1c/c(=N\c3c(C)cc(C)cc3C)n(CCNC(N)=O)c(=O)n1CC2 [Ethanesulfonate, RPL554 ethanesulfonate] have Solubility as RPL554 (mg/ml) in 0.7 w/w % Saline greater than or equal to 2 mg/mL?
Result :: Criterion not met

Query :: Hi team, for COc1cc2c(cc1OC)-c1c/c(=N\c3c(C)cc(C)cc3C)n(CCNC(N)=O)c(=O)n1CC2 [Phosphate, RPL554 phosphate] , is the recorded Solubility as RPL554 (mg/ml) in 0.7 w/w % Saline at or above 2 mg/mL?
Result :: Criterion met

* * *

I'd appreciate it if you could supply Solubility as RPL554 (mg/ml) in 0.9 w/w % Saline values for the items below.
- MEASUREMENT_DESCRIPTION: Solubility of RPL554 salts in saline solutions, water and aqueous buffer solutions at 25° C. (HPLC)
- Assay type: physicochemical
- MEASUREMENT_CONTEXT: 24 hours
- Procedure: The behaviour of salts of RPL554 were examined under the following conditions: • Phosphate buffered to pH 3.5 in saline, 0.9% w/w at 25° C. • Acetate buffered to pH 4.5 in saline, 0.9% w/w at 25° C. • Citro-Phosphate buffered to pH 4.5 in saline, 0.9% w/w at 25° C. • Phosphate buffered to pH 6.5 in saline, 0.9% w/w at 25° C. • Saline, 0.7, 0.9 and 1.1% w/w at 25° C. • Deionised water at 25° C. […]
Structures can show the parent of a compound that is named as a salt.
# include the unit after the value

For orientation, consider the following solved cases.
COc1cc2c(cc1OC)-c1c/c(=N\c3c(C)cc(C)cc3C)n(CCNC(N)=O)c(=O)n1CC2 [p-Toluenesulfonate, RPL554 p-toluenesulfonate] | 0.62 mg/mL
COc1cc2c(cc1OC)-c1c/c(=N\c3c(C)cc(C)cc3C)n(CCNC(N)=O)c(=O)n1CC2 [Naphthalene-2-sulfonate] | 0.09 mg/mL
COc1cc2c(cc1OC)-c1c/c(=N\c3c(C)cc(C)cc3C)n(CCNC(N)=O)c(=O)n1CC2 [Phosphate, RPL554 phosphate] | 4.78 mg/mL
COc1cc2c(cc1OC)-c1c/c(=N\c3c(C)cc(C)cc3C)n(CCNC(N)=O)c(=O)n1CC2 [Sulfate, RPL554 sulfate] | 1.94 mg/mL
COc1cc2c(cc1OC)-c1c/c(=N\c3c(C)cc(C)cc3C)n(CCNC(N)=O)c(=O)n1CC2 [Methanesulfonate, RPL554 methanesulfonate] | 3.73 mg/mL

Value of measured Solubility as RPL554 (mg/ml) in 0.9 w/w % Saline for the entry COc1cc2c(cc1OC)-c1c/c(=N\c3c(C)cc(C)cc3C)n(CCNC(N)=O)c(=O)n1CC2 [Ethanesulfonate, RPL554 ethanesulfonate] : 0.79 mg/mL

* * *

Kindly state Estimated RPL554 solubilised (%) for each of the entries shown.
- MEASUREMENT_DESCRIPTION: Solubility of RPL554 and salts in pMDI propellant systems
- Assay type: physicochemical
- MEASUREMENT_CONTEXT: in HFA 134 with Ethanol/Tween
- Method: Quantitative assessment of the solubility of RPL554 and salt variants in the propellant systems of selected pMDI formulations (three replicates of each formulation) was performed. pMDIs were directly coupled to an adaptor fitted with a 0.20 μm filter unit connected, in series to a 21 G needle, which was inserted via a rubber septum, into a cooled multi-dose glass vial. A 19 G filter needle was inserted through the septum to aid evaporation of propellant from the vial. […]
Where a name gives a salt, the structure may show the parent alone.
Please answer in the form of a number followed by its unit of measurement.

Past entries and their recorded results:
COc1cc2c(cc1OC)-c1c/c(=N\c3c(C)cc(C)cc3C)n(CCNC(N)=O)c(=O)n1CC2 [Ethanesulfonate, RPL554 ethanesulfonate] | 10.96%
COc1cc2c(cc1OC)-c1c/c(=N\c3c(C)cc(C)cc3C)n(CCNC(N)=O)c(=O)n1CC2 [p-Toluenesulfonate, RPL554 p-toluenesulfonate] | 7.20%
COc1cc2c(cc1OC)-c1c/c(=N\c3c(C)cc(C)cc3C)n(CCNC(N)=O)c(=O)n1CC2 [Methanesulfonate, RPL554 methanesulfonate] | 11.64%
COc1cc2c(cc1OC)-c1c/c(=N\c3c(C)cc(C)cc3C)n(CCNC(N)=O)c(=O)n1CC2 [Benzenesulfonate, RPL554 benzenesulfonate] | 4.03%

--- query ---
So for COc1cc2c(cc1OC)-c1c/c(=N\c3c(C)cc(C)cc3C)n(CCNC(N)=O)c(=O)n1CC2 [Sulfate, RPL554 sulfate] , the logged Estimated RPL554 solubilised (%) turned out to be 2.84%
